testedTarget: human recombinant serotonin (5-Hydroxytryptamine) 5-HT2C receptor (Homo sapiens, UniProt P28335)
Construct: expressed in transfected cells; host or cells: Chinese hamster ovary (CHO-K1) cells
Sequence (P28335 33-458): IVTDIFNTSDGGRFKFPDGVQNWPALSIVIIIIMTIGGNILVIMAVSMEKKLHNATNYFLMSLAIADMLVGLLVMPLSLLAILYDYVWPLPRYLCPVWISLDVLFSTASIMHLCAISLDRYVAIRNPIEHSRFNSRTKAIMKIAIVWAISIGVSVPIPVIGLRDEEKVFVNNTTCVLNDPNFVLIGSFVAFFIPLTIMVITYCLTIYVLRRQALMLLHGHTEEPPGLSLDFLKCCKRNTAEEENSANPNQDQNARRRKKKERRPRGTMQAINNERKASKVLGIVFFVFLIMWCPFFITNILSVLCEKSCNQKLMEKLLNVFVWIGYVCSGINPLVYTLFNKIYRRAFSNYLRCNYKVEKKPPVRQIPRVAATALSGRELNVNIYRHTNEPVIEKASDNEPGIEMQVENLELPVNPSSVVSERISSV
assayComment: Serotonin 5-HT2C radioligand binding ([3H]Mesulergine)
condition: compound at 0.1 μM; read-out: Inhibition of ligand binding, Serotonin 5-HT2C (percent inhibition of specific binding)
The compounds listed here are annotated with their inhibition at 0.1 µM.
readoutName: inhibition at 0.1 µM (%)

compound: CN1CCc2c(c3cc(Cl)ccc3n2CC(C)(O)c2cnccn2)C1 (stereo not drawn)
unitOfMeasurement: %
reading: 33
--
compound: C/C(=C\n1c2c(c3cc(C)ccc31)CN(C)CC2)c1ccc(Cl)cc1
unitOfMeasurement: %
reading: 98
--
compound: CCc1ccc2c(c1)c1c(n2/C=C(\C)c2ccncc2)CCN(C)C1
unitOfMeasurement: %
reading: 84
--
compound: C/C(=C\n1c2c(c3cc(C)ccc31)CN(C(C)C)CC2)c1ccncc1
unitOfMeasurement: %
reading: 40
--
compound: C/C(=C\n1c2c(c3ccccc31)CN(C)CC2)c1ccncc1
unitOfMeasurement: %
reading: 62
--
compound: C/C(=C\n1c2c(c3cc(C)ccc31)CN(C)CC2)c1cc(Cl)cc(Cl)c1
unitOfMeasurement: %
reading: 92
--
compound: CN1CCc2c(c3cc(Cl)ccc3n2CC(C)(O)c2ccncn2)C1 (stereo not drawn)
unitOfMeasurement: %
reading: -1
--
compound: C/C(=C\n1c2c(c3cc(Cl)ccc31)CN(C)C(C)C2)c1ccncc1 (stereo not drawn)
unitOfMeasurement: %
reading: 98
--
compound: C/C(=C/n1c2c(c3cc(Cl)ccc31)CN(C)CC2)c1ccc(Cl)c(Cl)c1
unitOfMeasurement: %
reading: 90
--
compound: Cc1ccc(C(O)Cn2c3c(c4cc(C)ccc42)CN(C)CC3)cc1 (racemic)
unitOfMeasurement: %
reading: 81
--
compound: Cc1ccc2c(c1)c1c(n2/C=C(\c2ccncc2)C(C)C)CCN(C)C1
unitOfMeasurement: %
reading: 94
--
compound: C/C(=C\n1c2c(c3cc(C)ccc31)CN(C)CC2)c1ccc(C)nc1
unitOfMeasurement: %
reading: 92
--
compound: CC(=Cn1c2c(c3cc(Cl)ccc31)CN(C)CC2)c1ccc(Cl)cc1Cl (stereo in doubt)
unitOfMeasurement: %
reading: 95
--
compound: C/C(=C\n1c2c(c3ccccc31)CN(C)CC2)c1ccc(F)cc1
unitOfMeasurement: %
reading: 96
--
compound: CN1CCc2c(c3cc(Cl)ccc3n2/C=C(\c2ccc(F)cc2)C2CC2)C1
unitOfMeasurement: %
reading: 101
--
compound: CN1CCc2c(c3cc(Cl)ccc3n2CC(O)(c2ccc(F)cc2)C2CC2)C1 (stereo not drawn)
unitOfMeasurement: %
reading: 94
--
compound: C/C(=C\n1c2c(c3cc(C(F)(F)F)ccc31)CN(C)CC2)c1ccc(F)cc1
unitOfMeasurement: %
reading: 86
--
compound: COc1ccc(C(C)(O)Cn2c3c(c4cc(C)ccc42)CN(C)CC3)cc1 (stereo not drawn)
unitOfMeasurement: %
reading: 96
--
compound: CC(C)/C(=C/n1c2c(c3cc(Cl)ccc31)CN(C)CC2)c1ccncc1
unitOfMeasurement: %
reading: 89
--
compound: CCC(O)(Cn1c2c(c3cc(Cl)ccc31)CN(C)CC2)c1ccc(F)cc1 (stereo not drawn)
unitOfMeasurement: %
reading: 69
--
compound: C/C(=C\n1c2c(c3cc(Cl)ccc31)CN(C)CC2)c1ccc(Cl)cc1
unitOfMeasurement: %
reading: 104
--
compound: CC(C)C(O)(Cn1c2c(c3cc(Cl)ccc31)CN(C)CC2)c1ccncc1 (stereo not drawn)
unitOfMeasurement: %
reading: 44
--
compound: C/C(=C\n1c2c(c3cc(Cl)c(Cl)cc31)CN(C)CC2)c1ccc(F)cc1
unitOfMeasurement: %
reading: 92
--
compound: Cc1ccc2c(c1)c1c(n2CC(O)(c2ccc(F)cc2)C2CCCCC2)CCN(C)C1 (stereo not drawn)
unitOfMeasurement: %
reading: 51
--
compound: C/C(=C\n1c2c(c3cc(Cl)ccc31)CN(C)C(C)C2)c1ccc(F)cc1 (stereo not drawn)
unitOfMeasurement: %
reading: 100
--
compound: CCC(O)(Cn1c2c(c3cc(C)ccc31)CN(C)CC2)c1ccncc1 (stereo not drawn)
unitOfMeasurement: %
reading: 8
--
compound: C/C(=C\n1c2c(c3cc(C(C)(C)C)ccc31)CN(C)CC2)c1ccncc1
unitOfMeasurement: %
reading: 19
--
compound: CN1CCc2c(c3cc(Cl)ccc3n2/C=C(/c2ccc(F)cc2)C2CC2)C1
unitOfMeasurement: %
reading: 99
--
compound: C/C(=C\n1c2c(c3ccc(C(F)(F)F)cc31)CN(C)CC2)c1ccc(C)nc1
unitOfMeasurement: %
reading: 31
--
compound: C/C(=C\n1c2c(c3cc(F)ccc31)CN(C)CC2)c1ccc(C)nc1
unitOfMeasurement: %
reading: 77
--
compound: C/C(=C\n1c2c(c3cccc(Cl)c31)CN(C)CC2)c1ccc(C)nc1
unitOfMeasurement: %
reading: 50
--
compound: CC(=Cn1c2c(c3cc(Cl)ccc31)CN(C)CC2)c1ccc(F)cc1F (stereo in doubt)
unitOfMeasurement: %
reading: 95
--
compound: C/C(=C\n1c2c(c3cc(Cl)ccc31)CN(C)CC2)c1ccc(F)cc1
unitOfMeasurement: %
reading: 100
